From: patent US9936701B2

Quick list: Pre-emergence herbicidal damage score, ECHCG per entry.
System: a variety of test species
assay_comment: Pre-emergence herbicidal activity (glasshouse, sprayed one day after sowing, evaluated after 13 days)
Type: in vivo
Set-up: key: 5=total damage to plant; 0=no damage to plant
assay_context: ECHCG, application pre-emergence, rate 1000 g/Ha, scale 0-5
Keep the answer to the number alone.

Would you please look over these solved cases?
>  <molecule>
COC1=C(C)C(O)N(c2noc(C(C)C)c2C#N)C1=O (centres unmarked) [D3]

>  <system_under_test>
a variety of test species

>  <recorded_value>
5

$$$$
>  <molecule>
CC1=C(Cl)C(=O)N(c2noc(C(C)(C)C)c2C#N)C1Cl (centres unmarked) [A97]

>  <system_under_test>
a variety of test species

>  <recorded_value>
4

$$$$
>  <molecule>
COC1=C(C)C(=O)N(c2cc(C(C)(C)C#N)on2)C1O (centres unmarked) [G6]

>  <system_under_test>
a variety of test species

>  <recorded_value>
4

$$$$
>  <molecule>
C=COC(=O)OC1C(C)=C(Cl)C(=O)N1c1cc(C(C)(C)C)on1 (centres unmarked) [A83]

>  <system_under_test>
a variety of test species

>  <recorded_value>
5

$$$$

Tested on a variety of test species: CC1=C(Cl)C(=O)N(c2cc(C(C)c3ccccc3)on2)C1O (centres unmarked) [A30] . Observed Pre-emergence herbicidal damage score, ECHCG: 1

###

Test system: a variety of test species
assay_comment: Pre-emergence herbicidal activity (glasshouse, sprayed one day after sowing, evaluated after 13 days)
Format: in vivo
Set-up: key: 5=total damage to plant; 0=no damage to plant
assay_context: AMARE, application pre-emergence, rate 1000 g/Ha, scale 0-5
measure_name: Pre-emergence herbicidal damage score, AMARE
Keep the answer to the number alone.

Would you please look over these solved cases?
>  <molecule>
CCC(C)(C)c1onc(N2C(=O)C(OC)=C(C)C2O)c1C#N (stereo not shown)

>  <recorded_value>
5

$$$$
>  <molecule>
CCOC1=C(C)CN(c2cc(C(C)(C)C#N)on2)C1=O

>  <recorded_value>
4

$$$$
>  <molecule>
CCC1=C(Cl)C(=O)N(c2noc(C(C)(C)CC)c2C#N)C1O (stereo not shown)

>  <recorded_value>
5

$$$$
>  <molecule>
CC(=O)OC1C(N)=C(Cl)C(=O)N1c1cc(C(C)(C)C)on1 (stereo not shown)

>  <recorded_value>
5

$$$$
>  <molecule>
CC1=C(Cl)C(=O)N(c2cc(C(C)(C)CC#N)on2)C1O (stereo not shown)

>  <recorded_value>
5

$$$$
>  <molecule>
CCCC1=C(Br)C(=O)N(c2noc(C(C)(C)C#N)c2C#N)C1OC(=O)CC (stereo not shown)

>  <recorded_value>
5

$$$$
>  <molecule>
COC1=C(C)C(=O)N(c2noc(C(C)(C)C)c2C#N)C1O (stereo not shown)

>  <recorded_value>
5

$$$$
>  <molecule>
CCSC(=O)OC1C(C)=C(Cl)C(=O)N1c1cc(C(C)(C)C)on1 (stereo not shown)

>  <recorded_value>
5

$$$$
>  <molecule>
COC1=C(C)C(=O)N(c2noc(C(C)C)c2C#N)C1O (stereo not shown)

>  <recorded_value>
5

$$$$

Lab book: Pre-emergence herbicidal damage score, AMARE of CC(C)(C)c1cc(N2C(=O)C(Cl)=C(NC3CCC3)C2O)no1 (stereo not shown) noted as 3
